Target: Fibrinogen (FB) (Bos taurus, UniProt P02672+P02676+P12799)
Sequence (P02672 20-615): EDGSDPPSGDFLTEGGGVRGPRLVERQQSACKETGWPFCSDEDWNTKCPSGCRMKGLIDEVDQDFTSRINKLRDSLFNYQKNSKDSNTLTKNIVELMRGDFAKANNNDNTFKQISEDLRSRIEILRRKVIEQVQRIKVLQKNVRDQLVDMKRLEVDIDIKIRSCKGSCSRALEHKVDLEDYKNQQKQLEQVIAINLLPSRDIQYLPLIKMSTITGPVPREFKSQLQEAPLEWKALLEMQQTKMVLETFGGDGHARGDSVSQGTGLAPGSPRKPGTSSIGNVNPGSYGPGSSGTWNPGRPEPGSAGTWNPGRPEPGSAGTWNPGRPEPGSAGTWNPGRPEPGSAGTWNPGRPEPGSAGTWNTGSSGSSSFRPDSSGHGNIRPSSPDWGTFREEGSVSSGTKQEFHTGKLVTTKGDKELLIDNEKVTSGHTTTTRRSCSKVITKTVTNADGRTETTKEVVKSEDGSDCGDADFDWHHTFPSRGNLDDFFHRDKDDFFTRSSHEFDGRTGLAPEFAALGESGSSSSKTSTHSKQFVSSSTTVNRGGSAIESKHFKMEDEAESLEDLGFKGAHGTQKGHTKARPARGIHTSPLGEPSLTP
Sequence (P02676 1-468): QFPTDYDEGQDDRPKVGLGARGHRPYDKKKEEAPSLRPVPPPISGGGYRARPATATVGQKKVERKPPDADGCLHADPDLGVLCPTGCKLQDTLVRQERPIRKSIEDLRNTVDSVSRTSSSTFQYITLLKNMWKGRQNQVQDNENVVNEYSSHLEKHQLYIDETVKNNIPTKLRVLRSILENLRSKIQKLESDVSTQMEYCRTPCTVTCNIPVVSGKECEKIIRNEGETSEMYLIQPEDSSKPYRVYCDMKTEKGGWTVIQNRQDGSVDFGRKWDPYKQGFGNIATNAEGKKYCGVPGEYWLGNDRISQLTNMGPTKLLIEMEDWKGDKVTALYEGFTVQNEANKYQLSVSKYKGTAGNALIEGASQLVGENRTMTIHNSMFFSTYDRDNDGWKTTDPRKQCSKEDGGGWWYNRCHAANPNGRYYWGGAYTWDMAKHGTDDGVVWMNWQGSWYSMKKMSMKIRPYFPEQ
Sequence (P12799 25-444): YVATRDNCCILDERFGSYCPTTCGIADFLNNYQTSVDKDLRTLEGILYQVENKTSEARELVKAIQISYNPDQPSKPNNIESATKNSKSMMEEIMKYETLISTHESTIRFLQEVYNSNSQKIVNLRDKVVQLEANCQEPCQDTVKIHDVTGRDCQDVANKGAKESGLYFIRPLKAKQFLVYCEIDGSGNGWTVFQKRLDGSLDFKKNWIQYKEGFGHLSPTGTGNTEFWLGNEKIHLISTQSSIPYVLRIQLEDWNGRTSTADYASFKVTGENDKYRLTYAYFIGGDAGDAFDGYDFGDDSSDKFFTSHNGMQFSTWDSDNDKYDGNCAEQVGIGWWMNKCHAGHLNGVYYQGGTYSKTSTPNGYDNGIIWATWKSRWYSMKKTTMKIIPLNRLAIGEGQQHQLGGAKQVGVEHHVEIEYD
Experiment: intrinsic fluorescence quenching titration
Counter-ions that a name gives are not always drawn.
readout-type: pKd
The read-out pKd is expressed as -log10 of concentration in moles per litre.

Consider CC(C)(C)NC[C@H](O)COc1nsnc1N1CCOCC1 [TM, Timolol maleate] . Its measured pKd is 2.78

Taken from paper PMC12391474.
